- Test system: kidney disease model rats
- test protocol: Action to depress blood pressure in kidney disease model rats (tail cuff)
- Assay type: in vivo, Sprague-Dawley female rats
- condition info: 20 mg/kg per os; after two days; control 210 mmHg
- Method: The compounds of the present invention and the reference substance were forcedly administered per os to kidney disease model rats, and the action to depress blood pressure was observed. […] After two days from the administration, the systolic blood pressure was measured by the tail cuff method using a blood pressure measuring apparatus (UR5000; Ueda).
observable: Blood pressure (average systolic) (mmHg)
Numbers only here, please. The scale is mmHg.

CCCCC(=O)Nc1c(Cl)ncnc1NCc1ccc(OC)cc1
207

Now for a further compound.
// Blood pressure (average systolic) lookup, compound = CCCCC(=O)Nc1c(Cl)ncnc1NCc1ccc(C(=O)OC)cc1 , result: 210

====

- Tested on: kidney disease model rats
- test protocol: Action to depress blood pressure in kidney disease model rats (tail cuff)
- Type: in vivo, Sprague-Dawley female rats
- condition info: 20 mg/kg per os; after two days; control 210 mmHg
observable: Blood pressure (average systolic)

CCCCC(=O)Nc1c(NCc2ccc(C(=O)O)cc2)ncnc1OCc1ccccc1 [Compound No. 11]
202 mmHg

response.value for CCCCC(=O)Nc1c(NCc2ccc(C(=O)O)cc2)ncnc1OC [compound 2] (field: Blood pressure (average systolic)) = 201 mmHg

Recorded Blood pressure (average systolic) (compound CCCCC(=O)Nc1c(NCCc2ccccc2)ncnc1NCc1ccc(C(=O)O)cc1 [Compound No. 8] ): 203 mmHg

Per the record, CCCCC(=O)Nc1c(NCc2ccc(OC)cc2)ncnc1NCc1ccc(C(=O)O)cc1 [Compound No. 10] has Blood pressure (average systolic) of 208 mmHg

====

We begin with a simple list: items and their reported Blood pressure (average systolic).
- Test system: kidney disease model rats
- test protocol: Action to depress blood pressure in kidney disease model rats (tail cuff)
- Format: in vivo, Sprague-Dawley female rats
- condition info: 20 mg/kg per os; after two days; control 210 mmHg
Report as a plain number; the unit mmHg is understood.

CCCCC(=O)Nc1c(NCc2ccc(C(=O)O)cc2)ncnc1N(C)Cc1ccccc1 [Compound No. 61]
205
CCCCC(=O)Nc1c(NCc2ccccc2)ncnc1NCc1ccc(OC)cc1 [Compound No. 89]
204

The measured Blood pressure (average systolic) that CCCCC(=O)Nc1c(NCc2ccccc2)ncnc1NCc1ccc(C(=O)O)cc1 [Compound No. 7] showed for kidney disease model rats is 208

Per the reported kidney disease model rats data, CCCCC(=O)Nc1c(NCCc2ccccc2)ncnc1NCc1ccc(OC)cc1 [compound 90] has Blood pressure (average systolic) of 208

Blood pressure (average systolic) value, target or system kidney disease model rats, for CCCCC(=O)Nc1c(NCCCc2ccccc2)ncnc1NCc1ccc(C(=O)O)cc1 [Compound No. 9] : 204
